// data source = the supplement of paper PMC3545927

For each record, write down the corresponding furin cleavage Z-score.
MEASURED_TARGET: furin, P09958;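 note: purified furin at 1:10 enzyme:substrate in 50 mM HEPES pH 7.5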
Sequence (P09958 whole entry): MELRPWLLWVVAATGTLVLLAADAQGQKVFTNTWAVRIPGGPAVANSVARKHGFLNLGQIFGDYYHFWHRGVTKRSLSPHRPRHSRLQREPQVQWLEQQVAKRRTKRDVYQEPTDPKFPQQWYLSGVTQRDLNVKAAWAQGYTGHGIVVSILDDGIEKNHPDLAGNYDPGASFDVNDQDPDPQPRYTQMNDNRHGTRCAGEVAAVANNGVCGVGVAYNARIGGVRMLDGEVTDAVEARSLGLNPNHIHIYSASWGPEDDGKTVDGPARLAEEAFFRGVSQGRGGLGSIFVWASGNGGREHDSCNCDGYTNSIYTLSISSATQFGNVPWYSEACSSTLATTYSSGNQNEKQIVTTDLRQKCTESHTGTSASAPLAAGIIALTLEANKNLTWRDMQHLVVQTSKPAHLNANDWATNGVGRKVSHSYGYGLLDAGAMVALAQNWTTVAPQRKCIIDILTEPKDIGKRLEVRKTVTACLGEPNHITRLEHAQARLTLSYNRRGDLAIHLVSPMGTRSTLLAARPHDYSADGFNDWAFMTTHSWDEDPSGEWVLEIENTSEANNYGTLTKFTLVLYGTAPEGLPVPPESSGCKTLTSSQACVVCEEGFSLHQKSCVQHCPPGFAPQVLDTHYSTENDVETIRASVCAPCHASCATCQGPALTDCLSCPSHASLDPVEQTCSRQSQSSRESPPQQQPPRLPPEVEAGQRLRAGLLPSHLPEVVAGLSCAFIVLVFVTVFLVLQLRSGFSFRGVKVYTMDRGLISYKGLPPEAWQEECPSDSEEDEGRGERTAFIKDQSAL
EXPERIMENTAL_PROTOCOL: furin cleavage Z-score vs untreated control; higher = more cleavage, active = 3.5 or more, inactive = 1 or less, 8 variable residues between constant flanks
CONDITIONS_USED: 7.5 min
The other results are listed elsewhere or left out. No count for the full screen is at hand.
Give bare numbers.

Look over these answered cases.
# ENTRY_SEQUENCE, furin cleavage Z-score
rows = [
    ("CAMVVTSTWVAGNASASA [HC2146]", -1.12),
    ("CANAEDVVCCAGNASASA [HC1367]", -0.652),
    ("CAVDVVCCSMAGNASASA [HC2110]", -1.67),
    ("CALFAGVDAEAGNASASA [HC349]", -0.796),
    ("CAAGIAYFSMAGNASASA [HC339]", -0.0596),
    ("CARKGRCVEPAGNASASA [FS-2686]", 3.13),
]

// below: furin cleavage Z-score requested for another sequence
Input CAMEECSLHLAGNASASA [HC1725] . Output furin cleavage Z-score: -0.0304
